Assayed system: MsepCSP5 (Mythimna separata, UniProt A0A5H2NAD7)
Assay info: Fluorescence competitive binding assay with the probe 1-NPN
Condition label: Ki, pH 5.0; Ki = IC50/(1+[1-NPN]/K1-NPN)
pKi: −log10 of the molar value.
Value kind: pKi

For orientation, consider the following solved cases.
# Molecule, Assayed system, pKi
data = [
    ("C=CC(O)CCCCC (stereo not shown)", "MsepCSP5 (Mythimna separata, UniProt A0A5H2NAD7)", 5.36),
    ("CC/C=C\\CCO [Cis-3-hexen-1-ol]", "MsepCSP5 (Mythimna separata, UniProt A0A5H2NAD7)", 3.46),
    ("CCCCCCCCCC(C)=O", "MsepCSP5 (Mythimna separata, UniProt A0A5H2NAD7)", 5.61),
    ("CCCCCCCCCCCCCC", "MsepCSP5 (Mythimna separata, UniProt A0A5H2NAD7)", 4.98),
]

a: CCC/C=C/CO [Trans-2-hexen-1-ol]
b: C=CC(C)(O)CCC=C(C)C (stereo not shown)
q: Returns: the argument ( a or b ) having the larger pKi. Kindly state the label of the option you pick.
a: a
(a: 5.09, b: 4.71)

1: CCCCCCCC
2: CCCCCCCCCCCCCCCCCCC
q: Returns: the argument ( 1 or 2 ) having the larger pKi. Kindly state the label of the option you pick.
a: 1
(1: 5.47, 2: 5.15)

---

Assayed system: MsepCSP5 (Mythimna separata, UniProt A0A5H2NAD7)
Sequence (A0A5H2NAD7 1-127): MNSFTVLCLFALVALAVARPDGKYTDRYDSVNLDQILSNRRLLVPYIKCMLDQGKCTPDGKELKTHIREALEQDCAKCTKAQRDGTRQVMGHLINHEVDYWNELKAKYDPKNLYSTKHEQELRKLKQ
Assay info: Fluorescence competitive binding assay with the probe 1-NPN
Condition label: IC50, pH 5.0; displacement of 1-NPN from MsepCSP5
Value kind: IC50 (µM)

# Compound, Assayed system, IC50 (µM)
rows = [
    ("CCC(O)CC [3-Pentanol]", "MsepCSP5 (Mythimna separata, UniProt A0A5H2NAD7)", 14),
    ("CCCCCC(C)O (stereo not drawn) [2-Heptanol]", "MsepCSP5 (Mythimna separata, UniProt A0A5H2NAD7)", 7.95),
    ("CCCCCCCCCCCC(C)=O [2Tridecanone]", "MsepCSP5 (Mythimna separata, UniProt A0A5H2NAD7)", 10.4),
]

---

Assayed system: MsepCSP5 (Mythimna separata)
Assay info: Fluorescence competitive binding assay with the probe 1-NPN
Condition label: pH 5.0

# Molecule, binding affinity to MsepCSP5 (in words)
rows = [
    ("CC1=CC[C@@H](C(C)(C)O)CC1 [α -Terpineol]", "high binding affinity"),
    ("C=CC(O)CCCCC (centres unmarked) [1-Octen-3-ol]", "high binding affinity"),
    ("CC12CCC(CC1)C(C)(C)O2 [Eucalyptol]", "high binding affinity"),
]

---

Assayed system: MsepCSP5 (Mythimna separata)
Assay info: Fluorescence competitive binding assay with the probe 1-NPN
Condition label: Ki, pH 7.4; Ki = IC50/(1+[1-NPN]/K1-NPN)
pKi: −log10 of the molar value.
Value kind: pKi

# Smiles data, pKi
rows = [
    ("OC1CCCCC1", 4.27),
]

I: CCCCCCCCCCCCCCCCCCCC
II: CCC(O)CC
q: Dear colleague, could you let me know whether I or II has the lower recorded pKi? Thanks. Kindly state the label of the option you pick.
a: I
(I: 4.72, II: 4.93)
